assayed_system: rat albumin (rat) (UniProt P02770)
Sequence (P02770 25-608 limits assumed): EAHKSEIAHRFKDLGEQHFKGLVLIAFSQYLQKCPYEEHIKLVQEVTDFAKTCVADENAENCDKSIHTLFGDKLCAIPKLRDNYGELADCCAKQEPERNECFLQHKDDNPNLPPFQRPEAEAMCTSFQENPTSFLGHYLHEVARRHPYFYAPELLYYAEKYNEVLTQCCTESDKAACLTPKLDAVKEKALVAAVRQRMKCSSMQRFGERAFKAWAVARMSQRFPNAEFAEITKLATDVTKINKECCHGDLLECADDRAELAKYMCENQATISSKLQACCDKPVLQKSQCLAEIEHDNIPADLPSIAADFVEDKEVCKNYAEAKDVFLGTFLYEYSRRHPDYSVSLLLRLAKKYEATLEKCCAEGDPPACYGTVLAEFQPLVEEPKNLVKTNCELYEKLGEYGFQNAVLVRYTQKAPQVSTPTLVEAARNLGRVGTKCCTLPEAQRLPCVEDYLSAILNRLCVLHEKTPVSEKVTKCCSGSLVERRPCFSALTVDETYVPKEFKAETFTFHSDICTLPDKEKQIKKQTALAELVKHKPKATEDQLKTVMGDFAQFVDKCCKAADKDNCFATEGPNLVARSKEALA
experimental_protocol: Kd for albumin as listed with the PK data (solution binding ELISA)
Bridges are numbered along the chain shown (N, C = ends). Where no end group is shown, it is not given here.
quantity: Kd (nM)
Write it as a number; the unit nM goes unstated.

Could you please provide reported Kd for {Fab4D5 heavy chain (…CDKTH)}-DICLPRWGCL (Fab, part only; not given: Carrier Fab (trastuzumab), not shown: another chain or arm of the molecule; large carriers, disulfide 3-9) [AB.Fab4D5-H11] ? Thanks!
2500
